FYI, the data here is from patent US11142525B2.

# Target of assay: human full-length recombinant HPK1 (Homo sapiens (Human))
# Assay explanation: HPK1 biochemical enzyme assay, microfluidic mobility shift assay (MSA)
# Condition description: HPK1 mobility shift assay; read-out: HPK1 Enzyme Assay_Ki
# Method: HPK1 enzyme inhibition was measured using a microfluidic mobility shift assay (MSA). […] The reactions were conducted for 60 min at 37° C., stopped by the addition of 50 μL of 0.015 M EDTA, pH 8, and the extent of reactions (˜15-20% conversion with no inhibitor) was determined after electrophoretic separation of the fluorescently labeled peptide substrate and phosphorylated product on an LabChip EZ Reader II (PerkinElmer, Inc., Waltham, Mass.). […]
Assay readout: Ki (nM)

Worked cases, Ki given:
CNCc1nc(N(C)C)cc2c1CN(c1cccc(-c3nncn3[C@@H](C)C(C)C)n1)C2=O ... 0.17
CNCc1nc(C2CC2)cc2c1CN(c1cccc(N3C(=O)OC[C@@H]3CF)n1)C2=O ... 1.44
CCC(CC)n1cnnc1-c1cccc(N2Cc3c(cc(N(C)C)nc3CN)C2=O)n1 ... 0.46
CCn1c(C)nnc1-c1cccc(N2Cc3c(cc(C4(C)CC4)nc3CN)C2=O)n1 ... 1.52
CCC(CC)n1c(C)nnc1-c1cccc(N2Cc3c(cc(N4CCC[C@@H]4C)nc3CNC)C2=O)n1 ... 0.8

1. CCN(c1cc2c(c(CN)n1)CN(c1cccc(N3C(=O)OC[C@@H]3CF)n1)C2=O)C(C)C
2. CNCc1nc(N2C[C@@H](C)O[C@@H](C)C2)cc2c1CN(c1cccc(-c3nncn3C(C)C)n1)C2=O
3. CCC(CC)n1cnnc1-c1cccc(N2Cc3c(cc(N4[C@H](C)CC[C@H]4C)nc3CN)C2=O)n1
4. C[C@H]1CCCN1c1cc2c(c(CN)n1)CN(c1cccc(N3C(=O)OC[C@@H]3C)n1)C2=O
5. CC[C@H](CO)n1cnnc1-c1cccc(N2Cc3c(cc(C4(C)CC4)nc3CNC)C2=O)n1 (single isomer, unassigned)
*Q* Sort the 5 compounds by Ki; largest first, smallest last. Return value: ordered labels per request.
*A* 2, 1, 3, 5, 4

----------
# Target of assay: human full-length recombinant HPK1 (Homo sapiens (Human), UniProt Q92918)
# Sequence (Q92918 whole entry): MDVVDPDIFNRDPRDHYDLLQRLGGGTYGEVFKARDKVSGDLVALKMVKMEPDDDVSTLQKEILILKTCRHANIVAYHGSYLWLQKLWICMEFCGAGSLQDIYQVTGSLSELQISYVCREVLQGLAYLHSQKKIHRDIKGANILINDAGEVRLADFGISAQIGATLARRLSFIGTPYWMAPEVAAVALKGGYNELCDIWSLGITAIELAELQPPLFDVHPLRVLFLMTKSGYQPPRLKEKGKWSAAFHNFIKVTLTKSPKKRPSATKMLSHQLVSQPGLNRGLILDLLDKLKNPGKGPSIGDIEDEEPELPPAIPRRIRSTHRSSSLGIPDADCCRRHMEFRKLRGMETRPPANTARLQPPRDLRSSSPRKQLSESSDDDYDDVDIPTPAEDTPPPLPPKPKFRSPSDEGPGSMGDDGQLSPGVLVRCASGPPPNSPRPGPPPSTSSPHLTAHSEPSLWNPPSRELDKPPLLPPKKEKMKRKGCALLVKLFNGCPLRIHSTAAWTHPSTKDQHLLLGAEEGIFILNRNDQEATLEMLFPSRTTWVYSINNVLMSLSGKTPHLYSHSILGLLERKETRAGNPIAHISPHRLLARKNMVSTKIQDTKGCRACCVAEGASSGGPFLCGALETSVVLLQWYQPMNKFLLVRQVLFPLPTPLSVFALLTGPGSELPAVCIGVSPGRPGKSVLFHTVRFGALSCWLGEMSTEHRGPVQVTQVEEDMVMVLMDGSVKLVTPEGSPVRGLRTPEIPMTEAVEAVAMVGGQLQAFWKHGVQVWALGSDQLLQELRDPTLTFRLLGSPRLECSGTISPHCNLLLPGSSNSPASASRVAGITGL
# Assay explanation: HPK1 biochemical enzyme assay, microfluidic mobility shift assay (MSA)
# Condition description: HPK1 mobility shift assay; read-out: HPK1 Enzyme Assay_Ki
Assay readout: Ki (nM)

Cc1nnc(-c2cccc(N3Cc4c(cc(N5CCC[C@@H]5C)nc4CN)C3=O)n2)n1C(C)C ... 0.76
CNCc1nc(N2[C@H](C)CC[C@H]2C)cc2c1CN(c1cccc(-c3nnc(C)n3C(C)C)n1)C2=O ... 1.04
CCC(CC)n1cnnc1-c1cccc(N2Cc3c(cc(C4CC4)nc3CN)C2=O)n1 ... 0.31
CCn1cnnc1-c1cccc(N2Cc3c(cc(N4[C@H](C)CC[C@H]4C)nc3CN)C2=O)n1 ... 0.32

A. CCNc1cc2c(c(CNC)n1)CN(c1cccc(-c3nncn3CC)n1)C2=O
B. CCN(c1cc2c(c(CN)n1)CN(c1cccc(-c3nncs3)n1)C2=O)C(C)C
C. CC[C@H](CC(F)(F)F)n1cnnc1-c1cccc(N2Cc3c(cc(N(C)C(C)C)nc3CNC)C2=O)n1 (single isomer, unassigned)
*Q* Arrange items by their Ki values in increasing order. Hello, could you send the labels back in the order asked? Thank you.
*A* C, A, B
